Hello, the source for this data is the Human Domainome abundance scans (Beltran et al. 2025), in case you need it.

B1: Dystrobrevin alpha, residues 235 to 294; numbered along this chain, Q9Y4J8 (parent)
chain: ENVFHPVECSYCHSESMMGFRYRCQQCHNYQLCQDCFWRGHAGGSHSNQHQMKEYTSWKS

variants of: B1; assay: abundance fitness (aPCA) (normalised: wild type 0, dead -1); higher = more abundant; growth selection in yeast, the domain comes from the species named; details: Homo sapiens
readout: abundance fitness

construct sequence: ENVFHPVECSYCHSESMMGFRYRCQQCHNYQLCQDCFWKGHAGGSHSNQHQMKEYTSWKS [R39K]
readout: abundance fitness
experimental value: 0.228

Request: Supply measured abundance fitness of ENVFHPVECSYCHSESMMGFWYRCQQCHNYQLCQDCFWRGHAGGSHSNQHQMKEYTSWKS [R21W] in your reply.
Result: -0.02

Request: Look up and report measured abundance fitness for this entry: ENVFHPVECSYCHKESMMGFRYRCQQCHNYQLCQDCFWRGHAGGSHSNQHQMKEYTSWKS [S14K]
Result: -0.043

Request: Note down abundance fitness recorded for ENVFHPGECSYCHSESMMGFRYRCQQCHNYQLCQDCFWRGHAGGSHSNQHQMKEYTSWKS [V7G]
Result: -0.085

Request: Tell me measured abundance fitness for ENVFHPVECSYCHSESMMGFRYRCQQCHNYQLCQDCFARGHAGGSHSNQHQMKEYTSWKS [W38A] please.
Result: 0.305

Request: Quickly give me recorded abundance fitness for ENVFHPVECSYCHSESMMGFRYRCQQCHNYTLCQDCFWRGHAGGSHSNQHQMKEYTSWKS [Q31T]
Result: 0.083

Request: Indicate its recorded abundance fitness; the variant in question is ENVFHPVECSYCHSESMMGFRYRCQQCHNYQLCQDCFWRGHAGGSHSNQHQMKEYHSWKS [T56H]
Result: -0.025

Request: For ENVFHPVECSYCHSESMMGFRYRCQQCHNYQLCQDCFWVGHAGGSHSNQHQMKEYTSWKS [R39V] , write its abundance fitness.
Result: -0.202

Request: Complete the entry with abundance fitness for ENVFAPVECSYCHSESMMGFRYRCQQCHNYQLCQDCFWRGHAGGSHSNQHQMKEYTSWKS [H5A]
Result: -0.195
